# Test system: strains of human rhinovirus (HRV)
# assay overview: Antirhinoviral H1-HeLa cell culture assay (XTT cell protection, EC50), other HRV strains
# Type: cell-based, human rhinovirus in H1-HeLa cells
# cond: Human rhinovirus sp., HRV25, H1-HeLa
measured endpoint: pEC50
Would you please state pEC50, meaning minus log10 of the concentration in mol/L, as a bare number?

**Query** Record request: pEC50 value, item `CCOC(=O)/C=C/[C@H](C[C@@H]1CCNC1=O)NC(=O)[C@@H]1CCc2ccc(NC(=O)c3cc(C)on3)c(=O)n21`
**Result** 6.79

* * *

# System: H1-HeLa cells
# assay overview: Cytotoxicity (CC50) in mock-infected H1-HeLa cells, XTT dye reduction
# Format: cell-based, human
# cond: line of HRV-13
measured endpoint: CC50

**Query** # get_value(readout='CC50', item= `C#CC[C@@H](C(=O)N[C@H](/C=C/C(=O)OC1CCC1)C[C@@H]1CCNC1=O)n1cccc(NC(=O)c2cc(C)on2)c1=O` )
**Result** > 10 µM

**Query** Then `CCOC(=O)/C=C/[C@H](C[C@@H]1CCNC1=O)NC(=O)[C@H](Cc1ccc(F)c(F)c1)n1cccc(NC(=O)c2cc(C)on2)c1=O` ?
**Result** > 10 µM

**Query** And the next one, `CCOC(=O)/C=C/[C@H](C[C@@H]1CCNC1=O)NC(=O)[C@H](CC)n1cccc(NC(=O)c2cc(C)on2)c1=O` ?
**Result** > 10 µM

* * *

# System: HRV-14
# assay overview: Antirhinoviral H1-HeLa cell culture assay (XTT cell protection, EC50), HRV-14
# Assay type: cell-based, human rhinovirus (HRV) serotype-14 in H1-HeLa cells
# cond: Rhinovirus B, HRV14, H1-HeLa
# Procedure: Antirhinoviral H1-HeLa Cell Culture Assay: In this cell protection assay, the ability of compounds to protect cells against HRV infection was measured by the XTT dye reduction method, which is described in Weislow et al., J. Natl. Cancer Inst. […] Two days later, XTT/PMS was added to test plates and the amount of formazan produced was quantified spectrophotometrically at 450/650 nm. […] The therapeutic index (TI) was calculated by dividing the CC50 value by the EC50 value. […]
Note that class boundaries on EC50 are low value (below 0.04 µM), medium value (0.04 µM to below 0.2 µM), high value (0.2 µM or more)

**Query** Lab note: which band did Cc1cc(C(=O)Nc2cccn([C@@H](Cc3ccc(F)c(F)c3)C(=O)N[C@H](/C=C/C(=O)OC3CCC3)C[C@@H]3CCNC3=O)c2=O)no1 [Compound 58] land in?
**Result** low value

**Query** Same question for C#CC[C@@H](C(=O)N[C@H](/C=C/C(=O)O)C[C@@H]1CCNC1=O)n1cccc(NC(=O)c2cc(C)on2)c1=O [Compound 43] please.
**Result** high value

**Query** Repeat for the following compound: CCOC(=O)/C=C/[C@H](C[C@H]1CCNC1=O)NC(=O)[C@H](Cc1ccccc1)n1cccc(NC(=O)OCc2ccccc2)c1=O [Compound 21]
**Result** high value

**Query** Quick one: Cc1cc(C(=O)Nc2cccn([C@@H](Cc3ccc(F)c(F)c3)C(=O)N[C@H](/C=C/C(=O)OC3CCCCC3)C[C@@H]3CCNC3=O)c2=O)no1 [Compound 54]
**Result** medium value

**Query** Repeat with C#CC[C@@H](C(=O)N[C@H](/C=C(\C)C(=O)OCC)C[C@@H]1CCNC1=O)n1cccc(NC(=O)c2cc(C)on2)c1=O [Compound 44]
**Result** high value

**Query** Would you mind doing CC[C@@H](C(=O)N[C@H](/C=C/C(=O)OC(C)(C)C)C[C@@H]1CCNC1=O)n1cccc(NC(=O)c2cc(C)on2)c1=O [Compound 34] as well?
**Result** medium value

**Query** Field entry: CC[C@@H](C(=O)N[C@H](/C=C/C(=O)OCc1ccccc1)C[C@@H]1CCNC1=O)n1cccc(NC(=O)c2cc(C)on2)c1=O [Compound 62]
**Result** medium value

**Query** Next up: CC[C@@H](C(=O)N[C@H](/C=C/C(=O)OC(C)C)C[C@@H]1CCNC1=O)n1cccc(NC(=O)c2cc(C)on2)c1=O [Compound 52]
**Result** medium value

**Query** Try Cc1cc(C(=O)Nc2cccn([C@@H](Cc3ccc(F)c(F)c3)C(=O)N[C@H](/C=C/C(=O)OC3CCCCCC3)C[C@@H]3CCNC3=O)c2=O)no1 [Compound 56] next.
**Result** medium value

**Query** Same thing, different compound: Cc1cc(C(=O)Nc2cccn([C@@H](Cc3ccc(F)c(F)c3)C(=O)N[C@H](/C=C/C(=O)OC(C)(C)C)C[C@@H]3CCNC3=O)c2=O)no1 [Compound 46]
**Result** low value

**Query** Follow-up item: C#CC[C@@H](C(=O)N[C@H](/C=C/C(=O)OCc1ccccc1)C[C@@H]1CCNC1=O)n1cccc(NC(=O)c2cc(C)on2)c1=O [Compound 63]
**Result** medium value

* * *

# Tested on: H1-HeLa cells
# assay overview: Cytotoxicity (CC50) in mock-infected H1-HeLa cells, XTT dye reduction
# Assay type: cell-based, human
# cond: HRV-25
measured endpoint: CC50

**Query** Could you share which CC50 value was measured for `CC[C@@H](C(=O)N[C@H](/C=C/C(=O)OC1CCCCC1)C[C@@H]1CCNC1=O)n1cccc(NC(=O)c2cc(C)on2)c1=O` ?
**Result** > 10 µM

**Query** Follow-up entry: `Cc1cc(C(=O)Nc2cccn([C@@H](Cc3ccc(F)c(F)c3)C(=O)N[C@H](/C=C/C(=O)OC3CCC3)C[C@@H]3CCNC3=O)c2=O)no1`
**Result** > 10 µM

**Query** Also check `C#CC[C@@H](C(=O)N[C@H](/C=C/C(=O)OCc1ccccc1)C[C@@H]1CCNC1=O)n1cccc(NC(=O)c2cc(C)on2)c1=O`
**Result** > 10 µM

* * *

# Tested on: strains of human rhinovirus (HRV)
# assay overview: Antirhinoviral H1-HeLa cell culture assay (XTT cell protection, EC50), other HRV strains
# Type: cell-based, human rhinovirus in H1-HeLa cells
# cond: Human rhinovirus sp., HRV3, H1-HeLa, HRV-3; read-out: EC50
measured endpoint: pEC50
In simple prose, pEC50 is minus the logarithm base ten of a concentration in moles per litre.

**Query** # query: pEC50 of entry `CCOC(=O)/C=C/[C@H](C[C@@H]1CCNC1=O)NC(=O)[C@H](Cc1ccc(F)cc1)n1cccc(NC(=O)c2cc(C)on2)c1=O`
**Result** 8.40

**Query** What would you report for `CC[C@@H](C(=O)N[C@H](/C=C/C(=O)OCc1ccccc1)C[C@@H]1CCNC1=O)n1cccc(NC(=O)c2cc(C)on2)c1=O` ?
**Result** 7.28

**Query** And the next one, `CCOC(=O)/C=C/[C@H](C[C@@H]1CCNC1=O)NC(=O)[C@H](Cc1ccc(F)c(F)c1)n1cccc(NC(=O)c2cc(C)on2)c1=O` ?
**Result** 8.52

**Query** Another compound: `Cc1cc(C(=O)Nc2cccn([C@@H](Cc3ccc(F)c(F)c3)C(=O)N[C@H](/C=C/C(=O)OC3CCCC3)C[C@@H]3CCNC3=O)c2=O)no1`
**Result** 7.39

**Query** Record: `Cc1cc(C(=O)Nc2cccn([C@@H](Cc3ccc(F)c(F)c3)C(=O)N[C@H](/C=C/C(=O)OC(C)(C)C)C[C@@H]3CCNC3=O)c2=O)no1`
**Result** 7.35

**Query** Can you check `Cc1cc(C(=O)Nc2cccn([C@@H](Cc3ccccc3)C(=O)N[C@H](/C=C/C(=O)OC(C)C)C[C@@H]3CCNC3=O)c2=O)no1` next?
**Result** 7.25

**Query** Check `CCOC(=O)/C=C/[C@H](C[C@@H]1CCNC1=O)NC(=O)[C@@H]1CCc2c(Cl)cc(NC(=O)c3cc(C)on3)c(=O)n21` too.
**Result** 7.41

**Query** Can you handle `CC[C@@H](C(=O)N[C@H](/C=C/C(=O)OC(C)(C)C)C[C@@H]1CCNC1=O)n1cccc(NC(=O)c2cc(C)on2)c1=O` next?
**Result** 7.21

**Query** For `C#CC[C@@H](C(=O)N[C@H](/C=C/C(=O)OCc1ccccc1)C[C@@H]1CCNC1=O)n1cccc(NC(=O)c2cc(C)on2)c1=O` then?
**Result** 7.57

**Query** Same thing, different compound: `Cc1cc(C(=O)Nc2cccn([C@@H](Cc3ccc(F)c(F)c3)C(=O)N[C@H](/C=C/C(=O)OC(C)C)C[C@@H]3CCNC3=O)c2=O)no1`
**Result** 7.48

**Query** Continue with `C#CC[C@@H](C(=O)N[C@H](/C=C/C(=O)OC1CCC1)C[C@@H]1CCNC1=O)n1cccc(NC(=O)c2cc(C)on2)c1=O`
**Result** 7.36

**Query** Repeat for the following compound: `Cc1cc(C(=O)Nc2cccn([C@@H](Cc3ccc(F)cc3)C(=O)N[C@H](/C=C/C(=O)OC(C)C)C[C@@H]3CCNC3=O)c2=O)no1`
**Result** 7.72

**Query** What about `C#CC[C@@H](C(=O)N[C@H](/C=C/C(=O)OCC)C[C@@H]1CCNC1=O)n1cccc(NC(=O)c2cc(C)on2)c1=O` ?
**Result** 7.68

**Query** Same thing, different compound: `CC[C@@H](C(=O)N[C@H](/C=C/C(=O)OC1CCC1)C[C@@H]1CCNC1=O)n1cccc(NC(=O)c2cc(C)on2)c1=O`
**Result** 7.48

# credit: patent US6514997B2
